Provide the reported MFI of each item.
target: T1, human BLyS (full length, arginine to histidine at position 132) on CHO-K1 cells (human, UniProt Q9Y275 1-285); test: flow cytometry, CHO-K1 hBLyS cells, antibody 0.107 nM
T1 construct: also called hBLyS; CHO-K1 hBLyS
T1 sequence (Q9Y275 whole entry R130H): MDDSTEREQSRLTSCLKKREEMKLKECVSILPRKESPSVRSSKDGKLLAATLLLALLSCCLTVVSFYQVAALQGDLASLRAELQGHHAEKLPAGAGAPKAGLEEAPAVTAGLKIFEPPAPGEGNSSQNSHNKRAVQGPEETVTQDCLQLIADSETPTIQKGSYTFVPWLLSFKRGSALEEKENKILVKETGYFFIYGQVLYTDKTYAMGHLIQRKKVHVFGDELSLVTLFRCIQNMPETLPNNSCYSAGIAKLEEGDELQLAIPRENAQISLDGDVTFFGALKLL
Express your answer in MFI, writing the number without its unit.

# query: MFI of entry 67A2E1D10 (antibody, V domains shown, Mouse hybridoma monoclonal antibody purified on Protein G) VH: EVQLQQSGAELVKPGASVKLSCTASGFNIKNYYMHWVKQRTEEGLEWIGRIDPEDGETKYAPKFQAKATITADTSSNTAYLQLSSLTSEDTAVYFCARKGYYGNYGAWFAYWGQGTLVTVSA VL: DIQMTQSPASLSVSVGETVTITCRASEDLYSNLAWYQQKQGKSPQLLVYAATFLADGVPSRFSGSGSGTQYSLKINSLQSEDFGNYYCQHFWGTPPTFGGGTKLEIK
60

# query: MFI of entry L1D12 (antibody, V domains shown, From a human naive scFv phage library; also called human BLyS antibody L1D12; LID12) VH: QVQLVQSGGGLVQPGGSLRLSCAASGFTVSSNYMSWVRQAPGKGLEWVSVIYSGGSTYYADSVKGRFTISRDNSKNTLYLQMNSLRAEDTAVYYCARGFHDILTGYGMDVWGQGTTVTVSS VL: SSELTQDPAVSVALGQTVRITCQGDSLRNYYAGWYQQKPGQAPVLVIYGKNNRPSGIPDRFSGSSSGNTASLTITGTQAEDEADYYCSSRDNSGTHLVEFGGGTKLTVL
205

# query: MFI of entry 97E7B3F2 (antibody, V domains shown, Mouse hybridoma monoclonal antibody purified on Protein G) VH: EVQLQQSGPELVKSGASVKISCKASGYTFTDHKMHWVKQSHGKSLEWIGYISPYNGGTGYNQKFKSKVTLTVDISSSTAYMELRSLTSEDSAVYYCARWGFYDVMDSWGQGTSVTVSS VL: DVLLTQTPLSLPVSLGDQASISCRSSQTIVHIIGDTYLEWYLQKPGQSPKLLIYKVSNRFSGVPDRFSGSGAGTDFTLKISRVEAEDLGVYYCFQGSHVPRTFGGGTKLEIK
174
